- Tested on: BT-549 breast
- Protocol details: NCI-60 one-dose screen, 48 h (100 = growth as untreated, 0 = no growth, -100 = all killed)
- Assay context: 10 µM unless noted
Compounds without any hit were thinned out: in the full panel of roughly 83,000, 20% have a hit.
The threshold is 30%. Values of growth beneath it are tagged rule met; values meeting or exceeding it are tagged rule not met.

For orientation, consider the following solved cases.
Cc1[nH]c(/C=C2\C(=O)Nc3ccc(F)cc32)c(C)c1C(=O)NC[C@H](O)CN1CCOCC1; rule not met
Oc1ccc(/C=N/Nc2nnc(N/N=C/c3ccc(O)cc3O)c3ccccc23)c(O)c1; rule met
CN1CCN(c2nc(NCCNc3ccnc4cc(Cl)ccc34)c3ccccc3n2)CC1; rule met
Cc1cc(Nc2cc(N3CCN(C)CC3)nc(Sc3ccc(NC(=O)C4CC4)cc3)n2)n[nH]1; rule met

Attention now shifts to the item below.
Asked: Dear colleague, could you confirm whether growth of `O=C(Cc1ccccc1)Nc1nnc(NC2CCN(c3nnc(NC(=O)Cc4ccccc4)s3)CC2)s1` falls below 30%? Thanks.
Given back: rule not met

* * *

- Test system: CAKI-1 renal
- Protocol details: NCI-60 one-dose screen, 48 h
- Assay context: 10 µM unless noted
This is part of a sample that, as a whole, favours compounds with a hit. Of some 83,000 tested, about 20% had one in any assay. Activity calls are given as the source filed them. Rule for the calls: active = growth percent below 10; inactive = the rest.
Mark one answer only. Choices: True = active, False = inactive

Take a look at these entries with their results.
O=[N+]([O-])c1cc(Br)cc2c1[nH]c1ccc(Br)cc12; False
CC(=O)OC(C(=O)c1ccccc1)c1ccccc1 (centres undefined); False
CN1CCN(c2ccc(OC(F)(F)F)c(Nc3ncc4c(n3)-c3c(c(C(N)=O)nn3CCO)CC4)c2)CC1; False
Cc1nn(-c2nc3ccccc3[nH]2)c2c1C(c1ccc(OCc3ccc(F)cc3)cc1)CC(=O)N2 (centres undefined); False

Asked: What did the test return for `NC[C@@](O)(c1ccc(Cl)cc1)c1ccc(-c2cn[nH]c2)cc1` ?
Given back: False

Asked: Each compound tested received a call. Report the one for COC(=O)CC[C@@H](C)[C@H]1CC[C@H]2C3CC[C@@H]4C[C@@H]5CC[C@]4(C)[C@@]3(O5)[C@H](Br)[C@@H](Br)[C@]12C (some centres undefined) .
Given back: False

Asked: Assay result, entry `C[C@@H]1COC(Nc2ccc3ncnc(Nc4ccc(OCc5nccs5)c(Cl)c4)c3c2)=N1` — outcome?
Given back: False

Asked: Please indicate how the test categorized `Nc1c(C(=O)c2ccccc2)sc2nc(-c3cccs3)cc(-c3cccs3)c12` .
Given back: False

Asked: What classification did `CCc1nc2ccc(Cc3ccc(C(=O)NO)cc3)cc2c(=O)n1CCc1ccccc1` end up with in this test?
Given back: True

* * *

- Tested on: SK-MEL-28 melanoma
- Protocol details: NCI-60 one-dose screen, 48 h
- Assay context: 10 µM unless noted
Compounds without any hit were thinned out: in the full panel of roughly 83,000, 20% have a hit. Calls of active or inactive are those of the source. Rule for the calls: active = growth percent below 10; inactive = the rest.
Use one of these outcomes when replying: active, inactive

O=C(Nc1cccc(Cl)c1)Nc1ncc(CCNc2ncnc3ccsc23)s1; inactive
CCc1nc2cc(/C=C/C(=O)NO)ccc2c(=O)n1CCc1ccc(OC)cc1; inactive
COc1cc2c(cc1OCCCCCCN1CCN(c3ncnc4ccccc34)CC1)N=CC1CCCN1C2=O (stereo not given); active

Asked: Answer briefly: the call reported for `O=C(NCCO)Nc1ccc(-c2nc(N3CCOCC3)c3cccn3n2)cc1` in this assay.
Given back: active

Asked: In this assay, the call recorded for `CSC1=C(N)C(=O)c2[nH]cc(CO)c2C1=N` was what?
Given back: active

Asked: Would you mind telling me which call this test gave `Cc1cn(-c2cc(NC(=O)c3ccc(C)c(Nc4nccc(-c5cccnc5)n4)c3)cc(C(F)(F)F)c2)cn1` ?
Given back: active

Asked: GET /call?item= `C[N+](C)(CCOC(c1ccccc1)c1ccccc1)CC(=O)OCc1ccccc1` returns the recorded outcome of this test.
Given back: inactive

Asked: Hi team, can someone confirm the assay call for CC(=O)c1cnc2ccc(-c3cc(Cl)c(O)c(Cl)c3)nc2c1NC1CCC(CN(C)C)CC1 (stereo not given) ?
Given back: active

Asked: Hi, do you know how `Clc1nc(Cl)c2ncn(CC#CCn3cnc4c(Cl)nc(Cl)nc43)c2n1` came out in this test?
Given back: active

Asked: Please state the recorded outcome for this compound: `NC1(C(=O)N[C@@H](CCO)c2ccc(Cl)cc2)CCN(c2ncnc3[nH]ccc23)CC1`
Given back: inactive

Recorded values, source PubChem BioAssay (NCI).
